B1: OAS1 (parent)
chain: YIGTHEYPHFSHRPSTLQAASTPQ

- Variants of: B1
- assayName: protein stability index of a GFP-peptide fusion (GPS, HEK-293T) (PSI 1-6); higher = more stable;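 note: lentivirally expressed fusions sorted by FACS into six bins by GFP to DsRed ratio, PSI derived from sequencing read proportions per bin multiplied by bin number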
- assayContext: c terminus: a fixed tail appended
Assign protein stability index to each entry below.
Format: numeric value only, no unit, no commentary.

# input variant: H9G ; wanted: its protein stability index
# output 1.95

# input I am curious: what protein stability index value has been reported for A19F ?
# output 1.99

# input For the variant shown here, P8S , give the reported protein stability index.
# output 1.95

# input Need protein stability index, item H5N
# output 2.03

# input Dear colleague, I am looking for the recorded protein stability index of the following variant: Y1C
# output 3.33

# input Sample Q24Y — what was its protein stability index?
# output 2.4

# input Requested field: protein stability index. Item: H9A
# output 1.87

# input Tell me the measured protein stability index of T22M , please.
# output 2.27

# input # lookup: protein stability index of Q18V
# output 1.99

# input If you can, please state the reported protein stability index value of T22P .
# output 2.17

# input Looking for the measured protein stability index of A19T , can you help?
# output 1.72

# input Which measured protein stability index value corresponds to S11C ?
# output 2.65

# input What measured protein stability index goes with Q24E ?
# output 2.25

# input Give its protein stability index value. Item: R13Q
# output 1.99

# input Consider the variant shown here: A20C What is its recorded protein stability index?
# output 1.84

# input Which measured protein stability index value corresponds to P23N ?
# output 2.54

# input Requested field: protein stability index. Item: H12N
# output 2.12

# input Any idea what its protein stability index is? The variant is S15E
# output 2.05

# input Which protein stability index is reported for this variant? Q24M
# output 1.87

# input Quick check: protein stability index of S15M ?
# output 1.6

# input What value of protein stability index has been reported for the following variant? T4M
# output 2.15

# input Return reported protein stability index; argument: T16N
# output 1.62

# input Recorded protein stability index of S15F , please.
# output 2.67

# input I have this variant here, S21K , and I need its recorded protein stability index.
# output 1.81

# input # lookup: protein stability index of E6P
# output 1.5

# input Which protein stability index value belongs to T16Y ?
# output 1.98

# input Would you mind telling me what protein stability index value was observed for S21P ?
# output 1.67

# input Given the entry E6I , report its measured protein stability index.
# output 1.75

# input Any idea what protein stability index was measured for A20N ?
# output 2.08

# input For G3N , what is its reported protein stability index?
# output 2.3

# input Reported protein stability index, variant H12Q : ____
# output 2.23

# input Query: protein stability index; subject: T22N
# output 2.1

# input // lookup protein stability index for R13N
# output 1.8

# input Please look up its protein stability index: S11P
# output 2.44

# input For L17M , what is its reported protein stability index?
# output 2.24

# input // lookup protein stability index for E6D
# output 1.92

# input Find the recorded protein stability index belonging to H12W and report it.
# output 1.46

# input I am curious: what protein stability index value has been reported for H12E ?
# output 2.25

# input I am curious: what protein stability index value has been reported for T22Y ?
# output 1.71

# input Would you mind telling me what protein stability index value was observed for A20L ?
# output 2.39

# input Given G3S , state its recorded protein stability index.
# output 2.03

# input Which protein stability index reading was recorded for the variant Q24S ?
# output 1.94

# input Tell me the measured protein stability index of Y7K , please.
# output 3.34

# input May I ask what protein stability index has been recorded for R13S ?
# output 2.18

# input Can you share its protein stability index? I mean this variant: P14I
# output 1.72

# input Using the record for S21W , report its protein stability index.
# output 2.42

# input Fill blank: measured protein stability index of the variant E6W is ____.
# output 3.29

# input Look up protein stability index for this variant: Q18N
# output 2.34

# input Tell me the measured protein stability index of S21G , please.
# output 2.23

# input Request the reported protein stability index associated with F10Y
# output 1.79

# input Look up protein stability index: P14M
# output 1.74

# input Form field: reported protein stability index of Y1Q
# output 4.21

# input Sample Q24T — what was its protein stability index?
# output 2.04

# input I have this variant here, L17F , and I need its recorded protein stability index.
# output 1.83

# input Record request: protein stability index value, item A19N
# output 1.9

# input Need protein stability index, item L17Q
# output 2.29

# input Consider the variant A19L and give its measured protein stability index.
# output 1.85

# input Would you mind telling me what protein stability index value was observed for T22I ?
# output 2.13

# input GET /values?readout=protein stability index&item= L17I
# output 1.9

# input Consider the variant shown here: S21I What is its recorded protein stability index?
# output 1.97

# input Quick one: protein stability index of F10A ?
# output 2.57

# input Please give the measured protein stability index for this variant: S21V
# output 1.89

# input Which protein stability index is listed for T22K ?
# output 2.35

# input Which protein stability index value belongs to Y1T ?
# output 4.07

# input Requested read-out: protein stability index. Entry: I2T
# output 2.17

# input Look up protein stability index for this variant: R13V
# output 2.67

# input Would you mind telling me what protein stability index value was observed for H9M ?
# output 2.33

# input Given the entry A20H , report its measured protein stability index.
# output 1.64

# input Entry F10E : reported protein stability index = ?
# output 3.25
